# SUBJECT_OF_TEST: GST-tagged truncated human mutant G2019S LRRK2 (Homo sapiens, UniProt Q5S007, G2019S)
# MEASUREMENT_NOTES: LRRK2 G2019S Km ATP LanthaScreen assay
# Assay type: biochemical
# CONDITION_INFO: 134 μM ATP (Km ATP), LRRKtide substrate, mean IC50 values; read-out: LRRK2 pIC50 (converted)
// assign YES if IC50 falls strictly below 7 nM, else NO (ties count as NO)

MOLECULE | ANSWER_LABEL
Cc1c(Nc2ncc3cc(Cl)c(N4CCN(C5COCC5O)CC4)cc3n2)cnn1C1CC1(F)F (single isomer, unassigned) [Ex-6.45] | YES
O[C@@H]1COC[C@@H]1N1CCN(c2nc3nc(Nc4cnn(C5CC5)c4Cl)ncc3cc2Cl)CC1 (single isomer, unassigned) [Ex-16.2] | NO
Cn1nc(Cl)cc1Nc1ncc2cc(Cl)c(N3CCN(C4(C)COCC4O)CC3)cc2n1 (stereo not shown) | YES
Cc1c(Nc2ncc3cc(Cl)c(N4CCN(C5(C)COC(C)(C)C5)CC4)cc3n2)cnn1C1CC1 (single isomer, unassigned) [Ex-12.3] | NO
Cn1ncc(Nc2ncc3ccc(N4C(=O)C5CCC4C5)cc3n2)c1C(F)(F)F (single isomer, unassigned) [Ex-4.5] | NO
CC1(N2CCN(c3cc4nc(Nc5cnn(C6CCC6)c5Cl)ncc4cc3Cl)CC2)COC1 [Ex-4.50] | YES
CC1(N2CCN(c3cc4nc(Nc5cnn(CC6(C#N)CC6)c5)ncc4cc3Cl)CC2)COC1 [Ex-4.53] | YES

---

# SUBJECT_OF_TEST: GST-tagged truncated human mutant G2019S LRRK2 (Homo sapiens, UniProt Q5S007, G2019S)
# MEASUREMENT_NOTES: LRRK2 G2019S Km ATP LanthaScreen assay
# Format: biochemical
# CONDITION_INFO: 134 μM ATP (Km ATP), LRRKtide substrate, mean IC50 values; read-out: LRRK2 pIC50 (converted)
Catalogue of IC50 readings, one per entry.

COMPOUND | IC50 (nM)
CC1CN(c2cc3nc(Nc4cnn(C5CC5)c4Cl)ncc3cc2Cl)CCN1CC(C)(C)O (stereo not shown) | 5.49
CC1(O)CC2(CN(c3cc4nc(Nc5cnn(C6CC6)c5)ncc4cc3Cl)C2)C1 | 2.47
COCC12CC(n3cc(Nc4ncc5cc(Cl)c(N6CCC7(CCCO7)CC6)cc5n4)cn3)(C1)C2 | 0.594
CC(C)(O)Cn1cc(Nc2ncc3cc(Cl)c(N4CCC(C)(O)CC4)cc3n2)cn1 | 0.221
C[C@H]1COC(=O)N1c1ccc2cnc(Nc3cnsc3)nc2c1 | 5.2
Cc1c(Nc2ncc3cc(Cl)c(N4CCC(O)CC4)cc3n2)cnn1C1CC1 | 0.106
FC(F)(F)C1(n2ncc(Nc3ncc4cc(Cl)c(N5CCN(C6COC6)CC5)cc4n3)c2Cl)CC1 | 3.45
OC1CN(c2cc3nc(Nc4cnn(CC(F)F)c4Cl)ncc3cc2Cl)C1 | 18.9
COC1CCC1n1ncc(Nc2ncc3cc(Cl)c(N4CCC(C)(O)CC4)cc3n2)c1C (single isomer, unassigned) [Ex-6.19] | 2.17
FC1CN(C2CCN(c3cc4nc(Nc5cnn(C6CC6)c5Cl)ncc4cc3Cl)CC2)C1 | 0.778
N#CCCN1CCN(c2cc3nc(Nc4cnn(C5CC5)c4Cl)ncc3cc2Cl)CC1 | 2.78
Cc1cc2cnc(Nc3cnn(C45CC(C4)C5)c3C)nc2cc1N1CCN(C2(C)CCOC2)CC1 (single isomer, unassigned) | 0.279
Cc1c(Nc2ncc3cc(Cl)c(N4CCN(C5COCC5O)CC4)nc3n2)cnn1C1CC1 (single isomer, unassigned) [Ex-16.4] | 83.8
CC1(N2CCN(c3cc4nc(Nc5cnn(CC(F)(F)F)c5)ncc4cc3Cl)CC2)COC1 | 3.03
Cc1c(Nc2ncc3cc(Cl)c(N4CCC(C)(O)C(C)C4)cc3n2)cnn1C1CC1 (single isomer, unassigned) [Ex-3.50] | 0.821
CCn1ncc(Nc2ncc3ccc(N4C(=O)OC[C@@H]4C)cc3n2)c1C | 0.989
